system: Escherichia coli TOP10; assay: shrunken log2 fold change of peptide-encoding DNA abundance (4.5 h post-induction vs induction); higher = less antimicrobial activity (less host growth inhibition); conditions: time post-induction: 4.5 h; library: site-saturation at positions 5, 18, 19, 20
Measured shrunken log2 fold change by item

>  <Sequence content>
RRIRQRPPRLPRPRPRPYHIPRP

>  <Measured on>
Escherichia coli TOP10

>  <shrunken log2 fold change>
0.0735

$$$$
>  <Sequence content>
RRIRFRPPRLPRPRPRPMNCPRP

>  <Measured on>
Escherichia coli TOP10

>  <shrunken log2 fold change>
-0.735

$$$$
>  <Sequence content>
RRIRARPPRLPRPRPRPKMSPRP

>  <Measured on>
Escherichia coli TOP10

>  <shrunken log2 fold change>
0.126

$$$$
>  <Sequence content>
RRIRLRPPRLPRPRPRPGRVPRP

>  <Measured on>
Escherichia coli TOP10

>  <shrunken log2 fold change>
0.242

$$$$
>  <Sequence content>
RRIRMRPPRLPRPRPRPMYLPRP

>  <Measured on>
Escherichia coli TOP10

>  <shrunken log2 fold change>
-0.0638

$$$$
>  <Sequence content>
RRIRLRPPRLPRPRPRPELDPRP

>  <Measured on>
Escherichia coli TOP10

>  <shrunken log2 fold change>
0.273

$$$$
>  <Sequence content>
RRIRFRPPRLPRPRPRPFIQPRP

>  <Measured on>
Escherichia coli TOP10

>  <shrunken log2 fold change>
-0.707

$$$$
>  <Sequence content>
RRIRCRPPRLPRPRPRPMEPPRP

>  <Measured on>
Escherichia coli TOP10

>  <shrunken log2 fold change>
0.0774

$$$$
>  <Sequence content>
RRIRQRPPRLPRPRPRPGHTPRP

>  <Measured on>
Escherichia coli TOP10

>  <shrunken log2 fold change>
0.0169

$$$$
>  <Sequence content>
RRIRSRPPRLPRPRPRPYQGPRP

>  <Measured on>
Escherichia coli TOP10

>  <shrunken log2 fold change>
-0.129

$$$$
>  <Sequence content>
RRIRVRPPRLPRPRPRPLWGPRP

>  <Measured on>
Escherichia coli TOP10

>  <shrunken log2 fold change>
0.0188

$$$$
>  <Sequence content>
RRIRSRPPRLPRPRPRPSFSPRP

>  <Measured on>
Escherichia coli TOP10

>  <shrunken log2 fold change>
-0.351

$$$$
>  <Sequence content>
RRIRVRPPRLPRPRPRPGHAPRP

>  <Measured on>
Escherichia coli TOP10

>  <shrunken log2 fold change>
0.245

$$$$
>  <Sequence content>
RRIRWRPPRLPRPRPRPCCGPRP

>  <Measured on>
Escherichia coli TOP10

>  <shrunken log2 fold change>
0.293

$$$$
>  <Sequence content>
RRIRPRPPRLPRPRPRPNNVPRP

>  <Measured on>
Escherichia coli TOP10

>  <shrunken log2 fold change>
-0.22

$$$$

* * *

test system: Escherichia coli TOP10; assay: shrunken log2 fold change of peptide-encoding DNA abundance (4.5 h post-induction vs induction); higher = less antimicrobial activity (less host growth inhibition); settings: time post-induction: 4.5 h; library: site-saturation at positions 5, 18, 19, 20;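 further: peptides expressed intracellularly from a pBAD plasmid library in pooled LB shake-flask culture, induced with 0.3% L-arabinose, DNA abundance read by NGS, three biological replicates, DESeq2 with apeglm shrinkage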
Outcome label depends on shrunken log2 fold change relative to 0.02: at/above gives Yes, below gives No.

>  <Sequence content>
RRIRKRPPRLPRPRPRPGADPRP

>  <Assigned category>
Yes

$$$$
>  <Sequence content>
RRIRIRPPRLPRPRPRPYLAPRP

>  <Assigned category>
No

$$$$
>  <Sequence content>
RRIRLRPPRLPRPRPRPRHIPRP

>  <Assigned category>
Yes

$$$$
>  <Sequence content>
RRIRCRPPRLPRPRPRPMEWPRP

>  <Assigned category>
Yes

$$$$
>  <Sequence content>
RRIRSRPPRLPRPRPRPVCWPRP

>  <Assigned category>
Yes

$$$$
>  <Sequence content>
RRIRIRPPRLPRPRPRPPASPRP

>  <Assigned category>
Yes

$$$$
>  <Sequence content>
RRIRKRPPRLPRPRPRPGLHPRP

>  <Assigned category>
Yes

$$$$
>  <Sequence content>
RRIRWRPPRLPRPRPRPYQFPRP

>  <Assigned category>
No

$$$$
>  <Sequence content>
RRIRWRPPRLPRPRPRPYNMPRP

>  <Assigned category>
No

$$$$
>  <Sequence content>
RRIRSRPPRLPRPRPRPCPPPRP

>  <Assigned category>
No

$$$$
>  <Sequence content>
RRIRMRPPRLPRPRPRPESGPRP

>  <Assigned category>
Yes

$$$$
>  <Sequence content>
RRIRGRPPRLPRPRPRPAQEPRP

>  <Assigned category>
Yes

$$$$
>  <Sequence content>
RRIRGRPPRLPRPRPRPHFRPRP

>  <Assigned category>
Yes

$$$$
>  <Sequence content>
RRIRKRPPRLPRPRPRPQNAPRP

>  <Assigned category>
No

$$$$
>  <Sequence content>
RRIRERPPRLPRPRPRPTLPPRP

>  <Assigned category>
Yes

$$$$
>  <Sequence content>
RRIRSRPPRLPRPRPRPKMNPRP

>  <Assigned category>
No

$$$$
>  <Sequence content>
RRIRCRPPRLPRPRPRPRHMPRP

>  <Assigned category>
No

$$$$
>  <Sequence content>
RRIRARPPRLPRPRPRPSSFPRP

>  <Assigned category>
No

$$$$
>  <Sequence content>
RRIRGRPPRLPRPRPRPQWDPRP

>  <Assigned category>
Yes

$$$$
>  <Sequence content>
RRIRHRPPRLPRPRPRPRNKPRP

>  <Assigned category>
No

$$$$
>  <Sequence content>
RRIRGRPPRLPRPRPRPEEPPRP

>  <Assigned category>
Yes

$$$$
>  <Sequence content>
RRIRCRPPRLPRPRPRPYRIPRP

>  <Assigned category>
No

$$$$
>  <Sequence content>
RRIRVRPPRLPRPRPRPFMLPRP

>  <Assigned category>
No

$$$$
>  <Sequence content>
RRIRARPPRLPRPRPRPTVAPRP

>  <Assigned category>
Yes

$$$$
>  <Sequence content>
RRIRQRPPRLPRPRPRPDGWPRP

>  <Assigned category>
Yes

$$$$
>  <Sequence content>
RRIRYRPPRLPRPRPRPLYVPRP

>  <Assigned category>
No

$$$$
>  <Sequence content>
RRIRNRPPRLPRPRPRPSNPPRP

>  <Assigned category>
Yes

$$$$
>  <Sequence content>
RRIRARPPRLPRPRPRPFVKPRP

>  <Assigned category>
Yes

$$$$
>  <Sequence content>
RRIRPRPPRLPRPRPRPYKVPRP

>  <Assigned category>
No

$$$$
>  <Sequence content>
RRIRLRPPRLPRPRPRPKDIPRP

>  <Assigned category>
No

$$$$
>  <Sequence content>
RRIRTRPPRLPRPRPRPLSCPRP

>  <Assigned category>
No

$$$$
>  <Sequence content>
RRIRPRPPRLPRPRPRPYLYPRP

>  <Assigned category>
No

$$$$
